Origin of the recorded values: PubChem BioAssay (NCI)

- Tested on: MOLT-4 leukemia
- TEST NAME: NCI-60 one-dose screen, 48 h (100 = growth as untreated, 0 = no growth, -100 = all killed)
- DETAILS: 10 µM
Compounds without any hit were thinned out: in the full panel of roughly 83,000, 20% have a hit.
Rule: growth of 50% or more gives 1; anything lower gives 0.

COMPOUND | LABEL VALUE
c1ccc(COCC[P+](c2ccccc2)(c2ccccc2)c2ccccc2)cc1 | 0
COc1cc(Cl)cc(-c2nn(-c3cccc(NC(=O)Nc4cccc(C(F)(F)F)c4)c3)cc2-c2ccncc2)c1 | 0
COc1cc(CSc2nc3ccc(Cl)cc3c(=O)n2-c2ccccc2)cc(OC)c1OC | 1
COc1cc2nc(Sc3sc(N)nc3C)n(-c3ccc(Oc4ccccc4)cc3)c(=O)c2cc1OC | 1
COc1cc(C2=Nc3c/c(=C\c4c(O)[nH]c5ccc(Cl)cc45)ccc3=N2)cc(OC)c1OC | 0
COc1cc(C)c2sc3ccccc3c(=O)c2c1NCCN(C)C | 0
Nc1nc(SCC#CCCl)c2[nH]cnc2n1 | 0
C[C@]12CC[C@H]3[C@@H](CCC4=CC(=O)CC[C@@]43C)[C@@H]1CC[C@@H]2c1csc(N)n1 | 0
CCNC(=S)NN | 1
[O-]c1c[n+](-c2ccc(Cl)cc2)no1 | 1
COc1cccc(-c2nnc(COc3ccc(-c4nc5ccc(C)cc5[nH]4)cc3OC)o2)c1 | 0
O=C(COc1ccc(Cl)cc1Cl)Oc1coc(CSc2nc3ccccc3s2)cc1=O | 1
CCCCCCCCCCCCCC[n+]1ccccc1 | 0
Oc1ccc(/C=N\Nc2ccccn2)c(O)c1 | 0
Cc1ccc(S(=O)(=O)N2CCc3ccccc3CC2)cc1 | 1
O=C(Nc1cccc(C(F)(F)F)c1)C(Cl)Cl | 1
Cc1cc(C)c(C(=O)OC(C)CNC2CCCCC2)c(C)c1 (stereo not drawn) | 1
CCCCCCCCCCCC(=O)NCCCN(C)C | 1
CCN1CCN(c2ccc(Nc3ncnc4c3nnn4CCc3cc(OC)cc(OC)c3)cc2)CC1 | 1
CCN(CC)CC(O)Cc1ccc(OC)cc1 (stereo not drawn) | 1
Nc1c(CNCc2nnn(Cc3ccccc3)c2N)nnn1Cc1ccccc1 | 1
CCCCCCN=C(N)CCCCCCCCCCC(N)=NCCCCCC | 0
O=[N+]([O-])c1ccc(S(=O)(=O)OCCCCOS(=O)(=O)c2ccc([N+](=O)[O-])cc2)cc1 | 1
Nc1ccccc1NC(=O)CCCCCCC(=O)Nc1ccc2c(c1)/C(=C/c1ccc[nH]1)C(=O)N2 | 0
CC(=O)Nc1ccc2c(c1)C(N1CC3CCC(CC3)C1)c1ccccc1-2 (stereo not drawn) | 1
COc1cc(/C=C/C(=O)c2cc(-c3ccccc3)ccc2O)cc(OC)c1OC | 0
Cc1nc2sccn2c1-c1csc(Nc2cccc(Cl)c2C)n1 | 0
COc1cccc(-c2nnc(COc3ccc(-c4nc5ccccc5[nH]4)cc3OC)o2)c1 | 1
CC1(C)CC(OCCCC[P+](c2ccccc2)(c2ccccc2)c2ccccc2)CC(C)(C)N1O | 0
Cc1ccc([P+](Cc2ccccc2)(c2ccccc2)c2ccccc2)cc1 | 0
COc1ccc(CCc2nc3cc(-c4c(C)noc4C)ccc3n2CCN2CCOCC2)cc1 | 1
C[N+]1(CC2CO2)CCCCCC1 (stereo not drawn) | 1
O=C(OCC1OC(n2cc(C(F)(F)F)c(=O)[nH]c2=O)CC1OC(=O)c1ccc([N+](=O)[O-])cc1)c1ccc([N+](=O)[O-])cc1 (stereo not drawn) | 1
C=CCNCCCN1C(=O)c2ccc3c4c(ccc(c24)C1=O)C(=O)N(CCCNCC=C)C3=O | 0
CCOC(=O)c1cc2c(n1Cc1cccc(OC)c1)-c1oncc1CC2 | 0
CCCCNC(=O)Oc1ccc(/C(=C(\C)c2ccc(OC)cc2)c2ccc(OCCN3CCCCC3)cc2)cc1 | 0
O=C(O)CN1C(=O)C=CC1=O | 1
CCc1ccc(Nc2cc(C)nc3nc(C)nn23)cc1 | 0
COc1ccccc1NC1=C(N2CCCCC2)C(=O)c2ccccc2C1=O | 1
COc1ccc(-c2nnc(COc3ccc(NC(=O)Nc4ccccc4)cc3F)o2)cc1 | 1
CCc1cc2n(n1)-c1ncc(C(=O)OC)cc1Oc1ccccc1-2 | 1
